- CONDITION_DESCRIPTION: siRNA; also: test system not given here
HELM strings list units from the 5' end as sugar, base in round brackets, then linkage (d deoxyribose, r ribose, m 2'-O-methyl, p phosphodiester). Strings are as the collection lists them, not checked against the first reports. ss, as = sense and antisense strand; [fl2r] = 2'-fluoro

{"SUBSTANCE": "RNA1{r(G)p.r(A)p.r(C)p.r(C)p.r(A)p.r(C)p.r(G)p.r(A)p.r(A)p.r(G)p.r(A)p.r(G)p.r(U)p.[fl2r](U)p.r(A)p.r(A)p.r(C)p.r(C)p.r(C)p.r(T)p.r(T)}|RNA2{r(G)p.r(G)p.r(G)p.r(U)p.[fl2r](U)p.r(A)p.r(A)p.r(C)p.r(U)p.r(C)p.r(U)p.r(U)p.r(C)p.r(G)p.r(U)p.r(G)p.r(G)p.r(U)p.r(C)p.r(T)p.r(T)}$$$RNA1{StrandType:ss}|RNA2{StrandType:as}$", "target mRNA knockdown, %": 82}
{"SUBSTANCE": "RNA1{r(G)p.r(G)p.r(A)p.r(G)p.r(C)p.m(U)p.r(A)p.r(G)p.r(A)p.r(C)p.r(G)p.r(G)p.r(G)p.m(U)p.r(A)p.r(C)p.r(G)p.r(A)p.r(G)p.r(T)p.r(T)}|RNA2{r(C)p.r(U)p.r(C)p.r(G)p.m(U)p.r(A)p.r(C)p.r(C)p.r(C)p.r(G)p.r(U)p.r(C)p.m(U)p.r(A)p.r(G)p.r(C)p.r(U)p.r(C)p.r(C)p.r(T)p.r(T)}$$$RNA1{StrandType:ss}|RNA2{StrandType:as}$", "target mRNA knockdown, %": 82}
{"SUBSTANCE": "RNA1{r(G)p.r(G)p.r(A)p.r(A)p.r(G)p.r(A)p.r(A)p.r(G)p.r(A)p.r(U)p.r(A)p.r(G)p.r(A)p.r(G)p.r(C)p.r(A)p.r(U)p.r(C)p.r(C)p.r(T)p.r(T)}|RNA2{r(G)p.r(G)p.r(A)p.r(U)p.r(G)p.r(C)p.r(U)p.r(C)p.[fl2r](U)p.r(A)p.r(U)p.r(C)p.r(U)p.r(U)p.r(C)p.r(U)p.r(U)p.r(C)p.r(C)p.r(T)p.r(T)}$$$RNA1{StrandType:ss}|RNA2{StrandType:as}$", "target mRNA knockdown, %": 37}

Value source: the OligoGym collection
